TEST_SUMMARY: qHTS assay to identify small molecule antagonists of the sonic hedgehog signaling (Shh) pathway - cell viability counter screen (AID 1259367); note: nearly all actives have a fitted effect of over 55% in size
RUN_CONDITIONS: NIH/3T3 Gli1-Luc viability, CellTiter-Fluor, 24 h; series mostly up to 92.4 µM
Results filed as inconclusive are left out. Calls of active or inactive are those of the source. Calls come from the whole dose curve; as a rule, active = well fitted cell-killing curve with a large enough effect in the repeat runs; inconclusive = weak or mixed curves, or effect the other way; inactive = no such curve, though single readings can be large or run the other way.
Labels: true (1) for active, false (0) for inactive

- COMPOUND: "ON=C1CCCCC1"
  ANSWER_LABEL: "false (0)"
- COMPOUND: "COc1ccc(NC(C)=O)cc1N"
  ANSWER_LABEL: "false (0)"
- COMPOUND: "CCCCCC/C(C=O)=C\\c1ccccc1"
  ANSWER_LABEL: "false (0)"
- COMPOUND: "C/C=C1/CC2C=CC1C2 (stereo not given)"
  ANSWER_LABEL: "false (0)"
- COMPOUND: "CN(C)CCC(c1ccc(Cl)cc1)c1ccccn1 (stereo not given)"
  ANSWER_LABEL: "true (1)"
- COMPOUND: "CCCCCOC(C)=O"
  ANSWER_LABEL: "false (0)"
- COMPOUND: "CCC(O)OC(O)CC (stereo not given)"
  ANSWER_LABEL: "false (0)"
- COMPOUND: "O=c1[nH]c(=O)n([C@H]2CCCO2)cc1F"
  ANSWER_LABEL: "false (0)"
- COMPOUND: "CCc1cccc(C)c1N"
  ANSWER_LABEL: "false (0)"
- COMPOUND: "CCCCC(CC)COC(=O)C(C#N)=C(c1ccccc1)c1ccccc1 (stereo not given)"
  ANSWER_LABEL: "false (0)"
- COMPOUND: "C=C(C)C(=O)O[C@H]1C[C@@H]2CC[C@@]1(C)C2(C)C"
  ANSWER_LABEL: "false (0)"
- COMPOUND: "CCc1ccc(CCOc2ccc(CC3SC(=O)NC3=O)cc2)nc1 (stereo not given)"
  ANSWER_LABEL: "false (0)"
- COMPOUND: "CC1=CCC2CC1C2(C)C (stereo not given)"
  ANSWER_LABEL: "false (0)"
- COMPOUND: "Cc1cccc(O)c1"
  ANSWER_LABEL: "false (0)"
- COMPOUND: "O=C(O)[C@H](O)[C@@H](O)[C@H](O)[C@H](O)CO"
  ANSWER_LABEL: "false (0)"

====

TEST_TARGET: Progesterone receptor (Homo sapiens)
TEST_SUMMARY: qHTS assay to identify small molecule agonists of the progesterone receptor (PR) signaling pathway (AID 1346784); note: nearly all actives have a fitted effect of over 30% in size
RUN_CONDITIONS: PR-UAS-bla HEK293T, beta-lactamase FRET ratio, 16 h; series mostly up to 92.4 µM
Results filed as inconclusive are left out. Activity calls are given as the source filed them. Calls come from the whole dose curve.
Labels: TRUE = active, FALSE = inactive

- COMPOUND: "CCCCCCCCCCCCc1ccccc1"
  ANSWER_LABEL: "FALSE"
- COMPOUND: "CCCC(C)=O"
  ANSWER_LABEL: "FALSE"
- COMPOUND: "N[C@@H](Cc1cc(I)c(Oc2cc(I)c(O)c(I)c2)c(I)c1)C(=O)O"
  ANSWER_LABEL: "FALSE"
- COMPOUND: "C#CCN(C)Cc1ccccc1"
  ANSWER_LABEL: "FALSE"
- COMPOUND: "O=C(CC(C(=O)OC1CCCCC1)S(=O)(=O)O)OC1CCCCC1 (stereo not drawn)"
  ANSWER_LABEL: "FALSE"
- COMPOUND: "C[C@H]1C[C@@H]2[C@H]([C@@H](O)C[C@@]3(C)[C@H]2CC[C@]3(O)C(=O)CO)[C@@]2(C)C=CC(=O)C=C12"
  ANSWER_LABEL: "TRUE"
- COMPOUND: "CC(=O)CC(=O)Nc1ccccc1C"
  ANSWER_LABEL: "FALSE"
- COMPOUND: "C[C@H]1C[C@H]2[C@@H]3CCC4=CC(=O)C=C[C@]4(C)[C@@]3(F)[C@@H](O)C[C@]2(C)[C@@]1(O)C(=O)CO"
  ANSWER_LABEL: "TRUE"
- COMPOUND: "OCc1cccnc1"
  ANSWER_LABEL: "FALSE"
- COMPOUND: "Cc1cccc(O)c1"
  ANSWER_LABEL: "FALSE"
- COMPOUND: "O=C(O)c1ccc(C(=O)O)cc1"
  ANSWER_LABEL: "FALSE"
- COMPOUND: "Oc1cccc2ccccc12"
  ANSWER_LABEL: "FALSE"
- COMPOUND: "CCCCCCCCCCCCCCCO"
  ANSWER_LABEL: "FALSE"

// provenance: PubChem BioAssay (Tox21)
